B1: C19orf51 (parent)
chain: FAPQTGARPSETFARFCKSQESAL

Variants of: B1
ASSAY OVERVIEW: protein stability index of a GFP-peptide fusion (GPS, HEK-293T) (PSI 1-6); higher = more stable;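 also: lentivirally expressed fusions sorted by FACS into six bins by GFP to DsRed ratio, PSI derived from sequencing read proportions per bin multiplied by bin number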
EXPERIMENTAL CONTEXT: c terminus: a fixed tail appended
Consider the following variants; for each one, report its protein stability index.
Just the number, please, no unit after it.

Would you kindly share the measured protein stability index for `S10Q` ? 1.96

Which protein stability index value belongs to `P3T` ? 1.98

What measured protein stability index goes with `T12D` ? 1.99

Fill in the blank: the reported protein stability index of `G6P` is ____. 1.95

So what's the measured protein stability index for this one? `T5N` 2.01

Bench note: what protein stability index did `K18Y` show? 1.99

Query: protein stability index; subject: `S22H` 1.98

Entry under review: `P3N` . Reported protein stability index? 1.96
